tested on: HSV-2 wild-type; assay: microbe, parasite or virus in culture; conditions: Human alphaherpesvirus 2, HEL, read-out: Median EC50
Hi there, I'd appreciate the recorded pEC50 for every entry that follows.
Answers are plain numbers, as −log10 of the molar value.

{"compound.structure.string": "Nc1ccn(C[C@@H](CO)OCP(=O)(O)O)c(=O)n1", "pEC50": 5.96}

# query: pEC50 of entry Nc1nc2c(ncn2COCCO)c(=O)[nH]1
6.57

* * *

assay: Cytotoxicity assay (MTS/PES); format: cell-based; conditions: PBMCs, 3 days
endpoint.label: CC50 (µM)
One number for each entry, in µM.

# query: CC50 of entry C/C=C1\NC(=O)[C@H](Cc2ccccc2)NC(=O)[C@@H]2CCCN2C(=O)[C@H](C(C)C)NC(=O)[C@H](Cc2c[nH]c3ccccc23)NC(=O)[C@]23CSC[C@H](NC1=O)C(=O)N[C@H](C(=O)O)CSSC[C@H](NC(=O)[C@@H]1CSC[C@]4(C[C@H](N)C(=O)N[C@@H](CC(N)=O)C(=O)N[C@@H](C)C(=O)N4)C(=O)N[C@@H](C(C)C)C(=O)N[C@@H](Cc4c[nH]c5ccccc45)C(=O)N[C@@H](CCC(=O)O)C(=O)N1)C(=O)N[C@@H](C2)C(=O)N[C@@H]([C@@H](C)O)C(=O)NCC(=O)N3
45

* * *

assay: Cytotoxicity assay (MTS/PES); type: cell-based; details: Daudi cells, 3 days
endpoint.label: CC50

# query: CC50 of entry C/C=C1\NC(=O)[C@H](Cc2ccccc2)NC(=O)[C@@H]2CCCN2C(=O)[C@H](C(C)C)NC(=O)[C@H](Cc2c[nH]c3ccccc23)NC(=O)[C@]23CSC[C@H](NC1=O)C(=O)N[C@H](C(=O)O)CSSC[C@H](NC(=O)[C@@H]1CSC[C@]4(C[C@H](N)C(=O)N[C@@H](CC(N)=O)C(=O)N[C@@H](C)C(=O)N4)C(=O)N[C@@H](C(C)C)C(=O)N[C@@H](Cc4c[nH]c5ccccc45)C(=O)N[C@@H](CCC(=O)O)C(=O)N1)C(=O)N[C@@H](C2)C(=O)N[C@@H]([C@@H](C)O)C(=O)NCC(=O)N3
> 48 µM

* * *

assay: Cytotoxicity assay (flow cytometry); type: cell-based; settings: VK2 (vaginal epithelial), 3 days, read-out: 50% cytotoxic concentration (CC50)
endpoint.label: CC50

# query: CC50 of entry C/C=C1\NC(=O)[C@H](Cc2ccccc2)NC(=O)[C@@H]2CCCN2C(=O)[C@H](C(C)C)NC(=O)[C@H](Cc2c[nH]c3ccccc23)NC(=O)[C@]23CSC[C@H](NC1=O)C(=O)N[C@H](C(=O)O)CSSC[C@H](NC(=O)[C@@H]1CSC[C@]4(C[C@H](N)C(=O)N[C@@H](CC(N)=O)C(=O)N[C@@H](C)C(=O)N4)C(=O)N[C@@H](C(C)C)C(=O)N[C@@H](Cc4c[nH]c5ccccc45)C(=O)N[C@@H](CCC(=O)O)C(=O)N1)C(=O)N[C@@H](C2)C(=O)N[C@@H]([C@@H](C)O)C(=O)NCC(=O)N3
> 48 µM

* * *

test system: HSV-1 TK^-; test: microbe, parasite or virus in culture; details: Human alphaherpesvirus 1, HEL, read-out: Median EC50
endpoint.label: pEC50
Give bare numbers, as −log10 of the molar value.

# query: pEC50 of entry Nc1ccn(C[C@@H](CO)OCP(=O)(O)O)c(=O)n1
6.41

* * *

system: HSV-2 wild-type RV-24 (clinical isolate); test: microbe, parasite or virus in culture; details: Human alphaherpesvirus 2, HEL
endpoint.label: pEC50
One number for each entry, as −log10 of the molar value.

{"compound.structure.string": "Nc1nc2c(ncn2COCCO)c(=O)[nH]1", "test.system": "HSV-2 wild-type RV-24 (clinical isolate)", "readout.value": 6.89}

From here, focus on the item given below.
# query: pEC50 of entry Nc1ccn(C[C@@H](CO)OCP(=O)(O)O)c(=O)n1
5.96

* * *

assay: Cytotoxicity assay (MTS/PES); format: cell-based, human; conditions: HEL cells, 3 days
endpoint.label: CC50

# query: CC50 of entry C/C=C1\NC(=O)[C@H](Cc2ccccc2)NC(=O)[C@@H]2CCCN2C(=O)[C@H](C(C)C)NC(=O)[C@H](Cc2c[nH]c3ccccc23)NC(=O)[C@]23CSC[C@H](NC1=O)C(=O)N[C@H](C(=O)O)CSSC[C@H](NC(=O)[C@@H]1CSC[C@]4(C[C@H](N)C(=O)N[C@@H](CC(N)=O)C(=O)N[C@@H](C)C(=O)N4)C(=O)N[C@@H](C(C)C)C(=O)N[C@@H](Cc4c[nH]c5ccccc45)C(=O)N[C@@H](CCC(=O)O)C(=O)N1)C(=O)N[C@@H](C2)C(=O)N[C@@H]([C@@H](C)O)C(=O)NCC(=O)N3 [LabyA1, labyrinthopeptin A1]
> 48 µM
